- Type: in vivo, BALB/c mice
- condition_summary: male, BALB/c, mouse, lung, iv, 0.25 mg/kg
reported_endpoint: half-life

In [3]: df
Out[3]:
                                   compound  assay_value
0  CC(C)C[C@H](NC(=O)[C@H](Cc1ccccc1)NC(=O)c1cnccn1)B(O)O [Bortezomib]        178 h

----------
- Type: in vivo, BALB/c mice
- condition_summary: male, BALB/c, mouse, bone, iv, 0.25 mg/kg
reported_endpoint: AUC(0-inf)

>>> df
                            chemical_smiles  assay_value
0  CC(C)C[C@H](NC(=O)[C@H](Cc1ccccc1)NC(=O)c1cnccn1)B(O)O    23.7 µM·h
